Target: P. falciparum apicoplast DNA polymerase (Pf-apPOL) (Plasmodium falciparum)
Sequence (Q8ILY1 entry or part of it): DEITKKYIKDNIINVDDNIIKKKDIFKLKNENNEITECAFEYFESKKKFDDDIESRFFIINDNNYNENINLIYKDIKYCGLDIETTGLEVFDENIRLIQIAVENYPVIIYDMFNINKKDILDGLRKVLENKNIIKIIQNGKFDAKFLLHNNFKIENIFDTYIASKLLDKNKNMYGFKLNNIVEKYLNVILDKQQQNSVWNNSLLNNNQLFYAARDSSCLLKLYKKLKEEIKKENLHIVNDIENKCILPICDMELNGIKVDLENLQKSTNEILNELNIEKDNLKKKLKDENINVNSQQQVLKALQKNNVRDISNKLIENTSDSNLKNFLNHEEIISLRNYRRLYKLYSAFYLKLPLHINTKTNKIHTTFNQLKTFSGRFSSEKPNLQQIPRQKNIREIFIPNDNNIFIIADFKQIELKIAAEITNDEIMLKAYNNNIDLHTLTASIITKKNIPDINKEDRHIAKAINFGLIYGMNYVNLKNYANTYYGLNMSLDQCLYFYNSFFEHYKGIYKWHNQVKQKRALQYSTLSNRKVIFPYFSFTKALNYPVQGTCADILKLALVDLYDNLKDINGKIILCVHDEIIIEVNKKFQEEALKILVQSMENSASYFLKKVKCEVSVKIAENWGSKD
Assay: Fluorescence-based high-throughput DNA polymerase assay (molecular beacon), primary screen and dose-response;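 further: test concentration in µM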
Type: biochemical
Conditions: DRC-2; 90'; concentration 5
Form field: % inhibition ApPOL 90' (one value per entry).
# value in %; strip the unit string

Worked examples follow.
COc1ccc(C2CC(c3ccc(Cl)cc3Cl)Nc3nc(N)nn32)cc1OC (centres unmarked) | 29
COc1ccc(-c2n[nH]cc2Oc2ccc(Cl)cc2)c(O)c1 | 24
CCCCSc1nnc2c(n1)OC(c1ccc([N+](=O)[O-])o1)Nc1ccccc1-2 (centres unmarked) | 32
O=C(O)c1cccc(N2N=C(C(F)(F)F)/C(=C/c3ccc(-c4ccccc4[N+](=O)[O-])o3)C2=O)c1 | 29

Consider the additional compound presented here.
Endpoint output: % inhibition ApPOL 90' of COc1ccc(-c2cc(=O)c3cc(O)ccc3o2)cc1OC . Value? 6
